Provenance of the data: patent US20240239887A1

Molecular target: T1, TIGIT (SPR analyte) (human, UniProt Q495A1 22-141, limits assumed)
T1 construct: the text says only 'TIGIT was used as the analyte'; The construct is not described; also called human TIGIT
T1 sequence (looked up): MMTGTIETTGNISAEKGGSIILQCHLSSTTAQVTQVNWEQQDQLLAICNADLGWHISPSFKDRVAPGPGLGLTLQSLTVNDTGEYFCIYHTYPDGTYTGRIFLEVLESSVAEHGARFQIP
Test: SPR (Biacore 8K), antibody captured through Fc, TIGIT as analyte
outcomeMeasure: kon (M⁻¹ s⁻¹)
Respond with the bare value in M⁻¹ s⁻¹.

Data request: Tell me the measured kon of Chimeric VH+VL (Parental mouse VH+VL combined with human Fc) (antibody, human IgG1, kappa, V domains shown, also called chimeric antibody) VH: QVQLQQSGAELMKPGASVKISCKATGYTFSRYWIEWVKQRPGHGLEWIGEIFPGSGGTNYNEKFKGKATFTADTSSNTAYMQLTSLTSEDSAVYYCARHLGALDYWGQGTSVTVSS VL: QIVLTQSPAIMSASPGEKVTISCSASSSVSYIHWYQQKAGSSPKPWIYRTSNLASGVPARLSGSGSGTSYFLTISSMEAEDAATYYCQQYHSNPWTFGGGTKLEIKR , please.
Data returned: 310000
